Tested on: Colon cancer organoid
Assay: Targeting of F14 CAF-induced therapy resistance in O23 CRC organoid-stroma co-culture. Cell viability is reported with SN-38.
Assay type: functional, Homo sapiens
Conditions: Homo sapiens, Concentration 10 uM; read-out: Cell Viability
Observation Type: viability at 10 µM (%)
# output: bare number, implied unit %

Problem: Quick check: viability at 10 µM of O=C(Nc1cnc(Oc2ccc(F)cc2)nc1)N1CCc2ncccc2[C@@H]1c1ccc(F)cc1 ?
Solution: 59.1

Problem: Quick check: viability at 10 µM of CNc1nc(-c2ccc3c(N)n[nH]c3c2)cc(N2C[C@@H](C(=O)NC3CCCCC3)CC[C@H]2C)n1 ?
Solution: 39.8

Problem: Quick check: viability at 10 µM of CCS(=O)(=O)Nc1ccc(Oc2ccc(F)cc2F)c(-c2cn(C)c(=O)c3[nH]ccc23)c1 ?
Solution: 25.4

Problem: Quick check: viability at 10 µM of C=CC(=O)Nc1ccc2[nH]c(=O)n(C3CCN(Cc4ccc(-c5nc6cc[nH]c(=O)c6cc5-c5ccccc5)cc4)CC3)c2c1 ?
Solution: 10.6

Problem: Quick check: viability at 10 µM of Cn1cnc2c(F)c(Nc3ccc(Br)cc3Cl)c(C(=O)NOCCO)cc21 ?
Solution: 48.4

Problem: Quick check: viability at 10 µM of O=c1nc(-c2ccccn2)sc2ccccc12 ?
Solution: 120

Problem: Quick check: viability at 10 µM of CC1CCN(c2ccnc(NCc3cn(C)cn3)n2)CC1 ?
Solution: 62.9

Problem: Quick check: viability at 10 µM of CC(=O)Nc1nc(CN2CCC[C@H](Cc3cc(C)nc(C)c3)C2)cs1 ?
Solution: 79.9

====

Test system: Colon cancer organoid
Test: Targeting of F14 CAF-induced therapy resistance in O23 CRC organoid-stroma co-culture. Cell viability is reported with Gefitinib.
Assay type: functional, Homo sapiens
Conditions: Homo sapiens, Concentration 10 uM; read-out: Cell Viability
Observation Type: viability at 10 µM
Remember to follow the number with its unit.

Problem: Quick check: viability at 10 µM of Cc1c(NC(=O)c2ccc(C(C)(C)C)cc2)cccc1-c1cn(C)c(=O)c(Nc2ccc(C(=O)N3CCOCC3)cc2)n1 ?
Solution: 54%

Problem: Quick check: viability at 10 µM of CN(C)C(=O)c1sc2nc(N3CCC(S(C)(=O)=O)CC3)cc(C(F)(F)F)c2c1N ?
Solution: 50%

Problem: Quick check: viability at 10 µM of CNCc1ccccc1-c1csc([C@@H](C)Nc2nc(C)nc3cc(OC)c(OC)cc23)c1 ?
Solution: 35%

Problem: Quick check: viability at 10 µM of CC(=O)c1cc(-c2ccccc2OCC2CC2)c2ncccn12 ?
Solution: 76.3%

Problem: Quick check: viability at 10 µM of CCn1c(-c2nc3cc(C(=O)N4CCCC(N)C4)ccc3n2C)cc2ccccc21 (stereo not given) ?
Solution: 83.2%

====

Tested on: Colon cancer organoid
Experiment: Targeting of F14 CAF-induced therapy resistance in O23 CRC organoid-stroma co-culture. Cell viability is reported without Gefitinib.
Type: functional, Homo sapiens
Details: Homo sapiens, Concentration 10 uM; read-out: Cell Viability
Would you mind telling me the reported viability at 10 µM of each entry?
# output: bare number, implied unit %

Problem: Quick check: viability at 10 µM of O=C(O)c1ccc(-c2c[nH]c3ncc(-c4ccccc4)cc23)cc1C1CCCC1 ?
Solution: 136

Problem: Quick check: viability at 10 µM of CN(C(=O)c1cnn2cccnc12)c1cc2c(cc1N1CCOCC1)C(=O)N(C[C@@H](F)C(C)(C)O)C2 ?
Solution: 92.3

Problem: Quick check: viability at 10 µM of COc1ccc(Cn2ccc3ccc(C(=O)NO)cc32)cc1 ?
Solution: 126

Problem: Quick check: viability at 10 µM of C=CC(=O)Nc1ccc2[nH]c(=O)n(C3CCN(Cc4ccc(-c5nc6cc[nH]c(=O)c6cc5-c5ccccc5)cc4)CC3)c2c1 ?
Solution: 9.17

Problem: Quick check: viability at 10 µM of CCN(C(=O)CO)[C@H]1CN(/C(=N\C#N)Nc2cccc(OC(F)F)c2)N=C1c1ccc(Cl)c(Cl)c1 ?
Solution: 84

====

Tested on: Colon cancer organoid
Assay: Targeting of F14 CAF-induced therapy resistance in O23 CRC organoid-stroma co-culture. Cell viability is reported without Gefitinib.
Format: functional, Homo sapiens
Settings: Homo sapiens, Concentration 10 uM; read-out: Cell Viability
Would you mind telling me the reported viability at 10 µM of each entry?
# output: bare number, implied unit %

Problem: Quick check: viability at 10 µM of Cc1cc(CN)cc(C)c1-c1ncn(C)c1-c1ccnc2cc(F)ccc12 ?
Solution: 122

Problem: Quick check: viability at 10 µM of CN1CCN(Cc2cc(NC(=O)c3ccc4c(c3)CN(c3ccccc3)CC4)cc(C(F)(F)F)c2)CC1 ?
Solution: 112

Problem: Quick check: viability at 10 µM of Cn1cncc1[C@](O)(COc1ccc(C#N)cc1-c1ccc(OC(F)(F)F)cc1)c1ccc(C#N)cc1 ?
Solution: 75.6

Problem: Quick check: viability at 10 µM of Cc1cc(CN)cc(C)c1-c1ncn(C)c1-c1cncn1C ?
Solution: 112

Problem: Quick check: viability at 10 µM of CCCCNNC(=O)c1ccc(Br)cc1 ?
Solution: 151

Problem: Quick check: viability at 10 µM of CC1=C(C)C(=O)C(C(C)(C)CC(=O)N(CCCCSC[C@H]2O[C@@H](n3cnc4c(N)ncnc43)[C@H](O)[C@@H]2O)Cc2cccc(-c3ccc(Cl)cc3)c2)=C(C)C1=O ?
Solution: 92.3

Problem: Quick check: viability at 10 µM of Cc1ccc2[nH]c(CNCCCc3ccncc3)cc(=O)c2c1 [UCSF924NC] ?
Solution: 95.8

Problem: Quick check: viability at 10 µM of O=C1NC(c2ccccn2)Sc2ccccc21 (stereo unspecified) ?
Solution: 142

Problem: Quick check: viability at 10 µM of CN1CCN(c2ccc(-c3cccc(CN4CCOCC4)c3)cc2NC(=O)c2c[nH]c(=O)cc2C(F)(F)F)CC1 ?
Solution: 131

Problem: Quick check: viability at 10 µM of COc1cc(N(C)c2ccnc3ccc(C(F)(F)F)cc23)cc(OC)c1OC ?
Solution: 135

Problem: Quick check: viability at 10 µM of O=C(O)CNC(=O)c1c(O)c2ccccc2n(Cc2ccccc2)c1=O ?
Solution: 167

Problem: Quick check: viability at 10 µM of CC1(C)C(N)=Nc2cc(OCCCCN3Cc4ccc(OCc5cn(CC(=O)N6CCC(CCN7CCCC7)CC6)nn5)cc4C3)c(OCC3CC3)cc21 ?
Solution: 86.3

Problem: Quick check: viability at 10 µM of CN(C)C(=O)N1CC[C@H](NC2=Nc3cc(F)ccc3N(CC(F)F)c3ccc(Cl)cc32)C1 ?
Solution: 102

Problem: Quick check: viability at 10 µM of COc1ccccc1C(=O)Nc1cc2c(cc1N1CCCC1)n(C)c(=O)n2C ?
Solution: 115

Problem: Quick check: viability at 10 µM of Cc1sc2c(c1C)C(c1ccc(Cl)cc1)=N[C@@H](CC(=O)OC(C)(C)C)c1nnc(C)n1-2 ?
Solution: 65.2

Problem: Quick check: viability at 10 µM of CO[C@@H](C)c1c(Nc2ccc([C@@H](N(C)C(=O)C3CCS(=O)(=O)CC3)C(F)(F)F)cc2)cnc2cc(Cl)nn12 ?
Solution: 119

Problem: Quick check: viability at 10 µM of NC1(c2ccc(-c3nc4ccn5c(=O)[nH]nc5c4cc3-c3ccccc3)cc2)CCC1 ?
Solution: 24.5

Problem: Quick check: viability at 10 µM of c1ccc2oc(-c3csc(C4CCN(Cc5nc6ncccc6[nH]5)CC4)n3)cc2c1 ?
Solution: 159

Problem: Quick check: viability at 10 µM of Cn1cc(CNCC2CCN(c3ncc(C(=O)NO)cn3)CC2)c2ccccc21 ?
Solution: 11.7

Problem: Quick check: viability at 10 µM of CC(=O)Nc1nc(CN2CCC[C@H](Cc3cc(C)nc(C)c3)C2)cs1 ?
Solution: 125

Problem: Quick check: viability at 10 µM of CC(C)Oc1ccc(-c2c[nH]cc2CN(C)CCN)cc1 ?
Solution: 132

Problem: Quick check: viability at 10 µM of COc1cc(-c2cn([C@H]3CCc4c(F)cccc4N(CC(F)(F)F)C3=O)nn2)ccc1-n1cnc(C)c1 ?
Solution: 86.7

Problem: Quick check: viability at 10 µM of C=CC(=O)Nc1ccc2[nH]c(=O)n(C3CCN(Cc4ccc(-c5ccc6c(c5)NC(=O)CO6)cc4)CC3)c2c1 ?
Solution: 106

Problem: Quick check: viability at 10 µM of CCC(=O)N1CCOc2c(cc(-c3ccc(OC)c(OC)c3)cc2OCC2CCCN(C)C2)C1 (stereo unspecified) ?
Solution: 119

Problem: Quick check: viability at 10 µM of CCCc1cc(C)[nH]c(=O)c1CNC(=O)c1cc(-c2ccnc(N3CCN(C)CC3)c2)cc2c1cnn2C(C)C ?
Solution: 119

Problem: Quick check: viability at 10 µM of O=C(NC[C@H](O)CN1CCc2ccccc2C1)c1ccnc(NC2CCC2)c1 ?
Solution: 83.1

Problem: Quick check: viability at 10 µM of CCC(F)(F)c1cc(N2CCC(S(C)(=O)=O)CC2)nc2sc(C(N)=O)c(N)c12 ?
Solution: 102

Problem: Quick check: viability at 10 µM of O=C(Nc1cnc(Oc2ccc(F)cc2)nc1)N1CCc2ncccc2[C@@H]1c1ccc(F)cc1 ?
Solution: 223

Problem: Quick check: viability at 10 µM of Cn1cnc2c(F)c(Nc3ccc(Br)cc3Cl)c(C(=O)NOCCO)cc21 ?
Solution: 62.9

Problem: Quick check: viability at 10 µM of CN1C[C@H](Nc2cnn(C)c(=O)c2Br)C[C@H](c2ccccc2)C1 ?
Solution: 143

Problem: Quick check: viability at 10 µM of CCNC(=O)c1cc2c(-c3cc(C(C)(C)O)ccc3Oc3c(C)cc(F)cc3C)cn(C)c(=O)c2[nH]1 ?
Solution: 135

Problem: Quick check: viability at 10 µM of Cc1cc(C)cc(C(=O)NOCCCCCC(=O)NO)c1 ?
Solution: 193

Problem: Quick check: viability at 10 µM of Cc1cc(-n2nc(Cc3cc(F)cc(C(F)(F)F)c3)nc2C)ccc1C(N)=O ?
Solution: 153

Problem: Quick check: viability at 10 µM of Cc1cc2c(-c3ccco3)cnc(N[C@@H]3CCN(C)C[C@H]3C(=O)NC3CCCCC3)c2[nH]c1=O ?
Solution: 72.5

Problem: Quick check: viability at 10 µM of COc1cc2c(NC3CCN(C(C)C)CC3)nc(N3CCC(F)(F)CC3)nc2cc1OCCCN1CCCC1 ?
Solution: 107

Problem: Quick check: viability at 10 µM of COc1cccc(CNC(=O)c2nc3scc(CN(C)Cc4ccccc4)c3c(=O)[nH]2)c1 [T-26f] ?
Solution: 98.9
